The measured values listed here are drawn from the domain aggregation screens of Martell et al. (2025).

Listing of entries alongside the reported soluble fraction (log2).
test: soluble fraction after stress (log2 fold change); higher = more stays soluble; pooled small domains, quantitative proteomics; conditions: stress: 75 degC;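 also: 20 min heating vs room temperature control held 20 min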
Field format: numeric only.

Example entries begin here.
# biosequence, soluble fraction (log2)
data = [
    ("HMEYSTLEIYSQTKKDLIEKSPHLNKVVYDKDDGYIYLLSFEKEDDLTSFKSNIENDSDIKRIEANV", 0.121),
    ("HMRIGINDRIHEIVDVLRLKKSTPFEDLFSGLVTRFDLVITFLALLEMGKLRLLRLYQTDPLAPLHVEYTG", -0.0164),
    ("HMYSKQRELIMEAVFKNRVHPTAEYVYKLLKKDHPELSLGTVYRNLNYWAENNMLKKINVPGGSDRFDGT", 0.0438),
]

Below: the item to evaluate.
Notebook: `HMEQVPEAVGRRVRQARSDRGWTLDQLAERSEVSRRMIVNVEAGTSNASIATLLRLATALNVGLAELVA` , soluble fraction (log2) read as -1.61

====

experiment: soluble fraction after stress (log2 fold change); higher = more stays soluble; pooled small domains, quantitative proteomics; details: stress: 75 degC
quantity-measured: soluble fraction (log2)
Answer as a number with no unit attached.

Guide cases for soluble fraction (log2), answers given:
# biosequence, soluble fraction (log2)
rows = [
    ("HMDKLSYALGLSMGHNFLGSGIKSLNVEDFAKGVEAVYKQEKPEISFDEAKKIINEFFSNLQDEIAE", -1.01),
    ("HMERLLVSKINGMITEAKVSVEDVVKVVASRGHYPEVKSIDEYPDDFLSRWVVPNFKKIVEMINANKEA", -0.979),
]

Notebook: `HMGNLASRVAEQLLDKMRGDSLVPGTRLPSEIAMAKHFGVSRTVMREAIARLKADGLLETRRGSGAFVLAT` , soluble fraction (log2) read as -0.973

====

assay: soluble fraction after stress (log2 fold change); higher = more stays soluble; pooled small domains, quantitative proteomics; settings: stress: 75 degC
quantity-measured: soluble fraction (log2)
Lab note: record just the number, no unit beside it.

Look over these answered cases.
# biosequence, soluble fraction (log2)
measured = [
    ("HMSTILERLIMLQEQSGMNQKQLQKELGLSNSAFSDWKKGKGRPSVEALVRFSEFFGVSMDWLAFG", -2.27),
    ("HMTRQPSAKEHAVLTAVKEGLRRDGRAPTVRALADMTGAASTSTVQRRISALIDLGLLRRTDGTLEVVE", 0.0806),
    ("HMELGWYVRLRRRELGLSVTALAEKAGMSQSYLSQIETGDRGNPSPESLRSLAEALEVSPRELESLV", -2.82),
    ("HMKGISRVTMELIIDALKKETEPRTVQWIAEKTGLATQTTYRYLQYMVSEQTVEALNVYGKVVSLKAK", -0.649),
    ("HMYDEAAIRKAVMTFVTDNRDERLDLAKISAVLTSKFGNINFDELGYKRFSSFIDSFPELRRNNTFVSLR", -0.883),
]

Sample `HMLTLDEKRRLQIMRVQVALTSLGLYNGRVDGVLNAETKLGLEFFQDLKGLPKSGTMTTPTLNALGVPA` ; soluble fraction (log2) observed: -2.43

====

Overview of recorded soluble fraction (log2) for various sequences
assay: soluble fraction after stress (log2 fold change); higher = more stays soluble; pooled small domains, quantitative proteomics; details: stress: 75 degC
Just the number.

Solved entries:
# biosequence, measured-value
measured = [
    ("HMRSIMAVSNYRHKKILEMVYQRKSVSADELAAEFGVSKITIRRDLDTLAMDKLLERTRGGAISISD", -3.14),
    ("HMENLQLQQLVKGLPEKMQEIVILRFSQELTMREIADIVNLPMRTVQSQLRLALKILKKEMG", -0.682),
    ("HMKTRTVVLKSAGGNKIAVIKIIKEITGLGLVEAKAVADNGGNIKENIPAEEAEAIKTQLTEAGAEVEL", -0.664),
    ("HMEATVGSRVRLARIGLTLTQKQLAQAVGVSANHLAMVERGSKHASEDLLQRIATATHTTYEWLMGTSEHQ", -2.43),
    ("HMGNHRNMSAEEEAAILAPFKARAEAGELVEISEIAKAYQSAVDHPISRGQIYFVLHRHGWRKV", -1.2),
]

Lab note: measured soluble fraction (log2) of `HMHDYTTIIGVIELRLNKISYDNVQKRYRIGRSGISLIMERYRDSGLSLDDLKQMPAEKVVNLIYPKD` was -2.88

Input `HMKAAQDQDQAATLLQKATGVNQDQAKLAATVLFKEQSVTPIRQAIASGDYYQAYQDAKSLQQQ` . Output soluble fraction (log2): 0.221

Noted for `HMNNQMTFSKFLNEVDAGRVVEVEIQGNNIKGVLADGNRFNTFSPNYPNLVEKLSDKGVSITAAPK` : its soluble fraction (log2) reads 0.174

soluble fraction (log2) for `HMFQNYTDAVVVASKTFFYNMPDESTRKSAYLIQGDRIMVEKSQRNFVYVTFTNEASGRTTTGWLKSDDLE` is -2.65

Record summary for `HMPMHPEDLKKLVSIEMPFGKHKGRIIADLPGNYLNWFAREGFPPGEIGRLLQLMQEIDHNGLSDLLKPLR` : reported soluble fraction (log2) = -0.521

Given item `HMTTTPAERQRTILRSLNRVDPVSVDALARLTGVSVVTIRRDLSDLASRDLIRRVHGGALLPTR` , the value recorded as its soluble fraction (log2) is -1.62

What the record says about `HMADRDKYIIMGQQLLRAAFEHFGKKATDKALENAANKLRISDVPELYARLGSAELQPRDVINVIFPD` : soluble fraction (log2) is -0.308

Entry `HMETWKLYKRAYKKYYARYMKGNMSEADFKAWATQAAADRDAAIEQITPEIDAALKAQIIEQLREKLNR` — recorded soluble fraction (log2) = -1.11

====

test: soluble fraction after stress (log2 fold change); higher = more stays soluble; pooled small domains, quantitative proteomics; conditions: stress: 75 degC
Lab note: compare soluble fraction (log2) against -1. Equal or greater, write y. Smaller, write n.

# biosequence, class-name
rows = [
    ("HMDGTVRGKTTFQELLDWGVPQERIEAVLGGPIPAPGVVIKDYVTAQGKEFSAVRDALQAEVDAVLK", "y"),
    ("HMEQPAPSTTVDILGGGRAALVTANRELGLALADDEIDYLTDSFTQLGRNPVDVELMMFAQA", "y"),
    ("HMTKRTEPSILQNFDTEIAELIAKNRGISIMDALRIFLASKTHEMLENDEMKLWYFSPLAVFDMWENE", "y"),
    ("HMKPGTIVTGVVVDIKSDVVVVNAGLKSEGIVPIEQFRNDRGELEVAIGDEVKVALDSLENGFGETVLSRE", "y"),
    ("HMLMLTPGQVSNSLNVSTATVRRWSARFARHLSPQPPNRKRSYTPDDLATLARVRDLSASGTSLAQIDIAL", "n"),
    ("HMNSQSGKGGVGYILETKYGLNLPPKMREAMGYAAKGVSDHLHKELHPDEIFDLFKKTFENVGQPYS", "y"),
    ("HMLFVKLSDAQRSMFGAKLARDARIQSEYAQKLPSENYEVFGKALADMLLDETHFKTFYPLLVEYGYTQPK", "n"),
    ("HMAPAPDEAFAEFVRSSAPSLTRTAWLLTGDRGHAQDLVQNAYAKTLQAWGRLDAEGALAYTRRAVIT", "y"),
    ("HMETLGADLRALRKSRGLTLLDMAESLGRSVGWLSQVERDLSDPSISDLREIAELLGVPISMLFRH", "n"),
    ("HMTEWSIHEVAQRSGVTTRTLRHYDAIGILSPTRTGANGYRYYGPEALVRLQRILLLRDLGLALSDIAE", "n"),
]

Query string: Answer whether soluble fraction (log2) of `HMTKTKADKIDYAIGDSGTEPPTEDKWTDLAHLPLIKAGQFQWTRRTEYYSDGSTAVSYNIAKSE` is greater than or equal to -1.
Result string: y

Query string: Check the entry `HMDVLDVADNVNDDMSFADAFAAARSEVGAGGIFYWHGKAYGTYYENEWAGMSEEDKADYWDAVARTTS` : does soluble fraction (log2) equal or exceed -1?
Result string: y

Query string: Exam item: decide whether the reported soluble fraction (log2) for `HMRAGHDFEALKHIESSLDKHLTDEGIKIKSEKRGAIVARWYQSHVEGREVTDDDVHTWIELFF` is at least -1.
Result string: n

====

assay: soluble fraction after stress (log2 fold change); higher = more stays soluble; pooled small domains, quantitative proteomics; conditions: stress: 75 degC
Quick rule for you: soluble fraction (log2) at -0.2 or higher means Y, lower means N.

Some solved entries appear below for comparison.
# biosequence, class-name
records = [
    ("HMGLSIPLMGAKASDIEISTLNDEVQRKLKIIVKEQGHENLQRVVPLPSEAREIQAHFINGRLHLR", "Y"),
    ("HMPVASNRDVNLDIGERVFVQEWAPNRTARVQYRGSPWEARLAPGAPAAAGEHRVSAVEGNWLVLEPA", "Y"),
    ("HMAENTIPSVIGKTLSDATFLLESYGYERGGVSEEYSEMPKGVVIRQSPQAGSSADPGTKVNLVVSLGEEI", "Y"),
]

Query string: Quick check: does `HMSTASPEELRQTPERRRLIEYLREHGGHGRTSEIAAALGIDDSTASRLLRRLADNGLIVRTQYGEYTLLQ` have soluble fraction (log2) greater than or equal to -0.2?
Result string: Y

Query string: For this sequence, is measured soluble fraction (log2) -0.2 or higher? `HMHPSNQELTKVLAQGSELVLAQKYIEASQIFTRVIEIDQTWAEAWNKRATVFYLLQNYEASQKDIDEV`
Result string: Y
